- ASSAY OVERVIEW: HPLC stability of solid forms stored at 80° C. in inert atmosphere
- EXPERIMENTAL SETUP: 80° C. in inert atmosphere, time 72 hours
OBSERVED PROPERTY: HPLC stability data (chromatographic purity) (%)

>>> df
                                   molecule  unit_label  recorded_number
0  CNC(=O)c1cnn(-c2nc(N)c3ncn([C@@H]4O[C@H](CO)[C@@H](O)[C@H]4O)c3n2)c1 [Form A, reference compound]           %             99.5
1  CNC(=O)c1cnn(-c2nc(N)c3ncn([C@@H]4O[C@H](CO)[C@@H](O)[C@H]4O)c3n2)c1 [Halo Amorphous]           %             99.7

* * *

- EXPERIMENTAL SETUP: 72 h
Recorded HPLC stability data (chromatographic purity) for the following compounds
OBSERVED PROPERTY: HPLC stability data (chromatographic purity) (%)

>>> df
                                   compound  recorded_number
0  CNC(=O)c1cnn(-c2nc(N)c3ncn([C@@H]4O[C@H](CO)[C@@H](O)[C@H]4O)c3n2)c1 [Form E]             99.4
1  CNC(=O)c1cnn(-c2nc(N)c3ncn([C@@H]4O[C@H](CO)[C@@H](O)[C@H]4O)c3n2)c1 [Form G]             99.8
2  CNC(=O)c1cnn(-c2nc(N)c3ncn([C@@H]4O[C@H](CO)[C@@H](O)[C@H]4O)c3n2)c1 [Form F]             99.7

* * *

- ASSAY OVERVIEW: HPLC stability of solid forms stored at 80° C. in inert atmosphere
- EXPERIMENTAL SETUP: 80° C. in inert atmosphere, time 96 hours
OBSERVED PROPERTY: HPLC stability data (chromatographic purity) (%)

In [3]: df
Out[3]:
                                   molecule  recorded_number
0  CNC(=O)c1cnn(-c2nc(N)c3ncn([C@@H]4O[C@H](CO)[C@@H](O)[C@H]4O)c3n2)c1 [Halo Amorphous]             99.7
1  CNC(=O)c1cnn(-c2nc(N)c3ncn([C@@H]4O[C@H](CO)[C@@H](O)[C@H]4O)c3n2)c1 [Form A, reference compound]             99.5

* * *

- EXPERIMENTAL SETUP: 96 h
# key: entry, value: HPLC stability data (chromatographic purity)
OBSERVED PROPERTY: HPLC stability data (chromatographic purity) (%)

>>> print(df.to_string())
                                   molecule  recorded_number
0  CNC(=O)c1cnn(-c2nc(N)c3ncn([C@@H]4O[C@H](CO)[C@@H](O)[C@H]4O)c3n2)c1 [Form F]             99.7
1  CNC(=O)c1cnn(-c2nc(N)c3ncn([C@@H]4O[C@H](CO)[C@@H](O)[C@H]4O)c3n2)c1 [Form G]             99.8
2  CNC(=O)c1cnn(-c2nc(N)c3ncn([C@@H]4O[C@H](CO)[C@@H](O)[C@H]4O)c3n2)c1 [Form E]             99.6
